Target: PKR(R510Q) (Homo sapiens, UniProt P30613, R510Q)
Sequence (P30613 whole entry R510Q): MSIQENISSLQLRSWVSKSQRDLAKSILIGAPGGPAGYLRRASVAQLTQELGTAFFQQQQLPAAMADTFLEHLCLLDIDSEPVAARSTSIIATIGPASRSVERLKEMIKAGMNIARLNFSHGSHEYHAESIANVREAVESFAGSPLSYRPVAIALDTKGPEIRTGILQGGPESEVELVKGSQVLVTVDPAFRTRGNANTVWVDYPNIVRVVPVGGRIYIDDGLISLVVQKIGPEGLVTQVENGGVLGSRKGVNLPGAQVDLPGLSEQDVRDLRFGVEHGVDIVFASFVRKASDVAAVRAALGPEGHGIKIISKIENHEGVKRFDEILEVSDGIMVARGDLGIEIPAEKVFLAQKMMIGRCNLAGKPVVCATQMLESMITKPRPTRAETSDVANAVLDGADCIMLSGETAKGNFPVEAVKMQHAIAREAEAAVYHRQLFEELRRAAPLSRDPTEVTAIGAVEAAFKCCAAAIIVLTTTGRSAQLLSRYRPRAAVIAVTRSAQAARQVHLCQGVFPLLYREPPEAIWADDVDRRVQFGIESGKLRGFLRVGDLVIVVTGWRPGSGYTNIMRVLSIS
Assay: Luminescence Biochemical Assay (Kinase Glo Plus), PKR R510Q mutant
Details: without FBP, read-out: AC50 LUM KGP woFBP MAX % FOLD mean
recordedEndpoint: Emax

• O=C([C@H]1CCCO1)N1CC2=C(C1)CN(S(=O)(=O)c1ccccn1)C2 [Example 18-60] = 250 to 500%
• O=C(OCC1CCOC1)N1CC2=C(C1)CN(S(=O)(=O)c1ccc(OC(F)F)cc1)C2 (centres unmarked) [Example 22-3] = 75 to 250%
• O=C(Cc1ccc(F)cc1F)N1CC2=C(C1)CN(S(=O)(=O)c1ccccn1)C2 [Example 18-67] = 250 to 500%
• Cc1nc(S(=O)(=O)N2CC3=C(CN(C(=O)C(C)n4cnc5ccccc54)C3)C2)cn1C (centres unmarked) [Example 19-9] = 75 to 250%
• O=C(Cc1cccnc1)N1CC2=C(C1)CN(S(=O)(=O)c1ccc(OC(F)F)cc1)C2 [Example 18-26] = 250 to 500%
• O=C([C@H](O)c1ccccc1)N1CC2=C(C1)CN(S(=O)(=O)c1cccc(F)c1)C2 [Example 18-50] = 250 to 500%
• O=C(NCc1cccc(F)c1)N1CC2=C(C1)CN(S(=O)(=O)c1ccc(OC(F)F)cc1)C2 [Example 21-14] = 250 to 500%
• O=C(C(F)c1ccccc1)N1CC2=C(C1)CN(S(=O)(=O)c1ccc(OC(F)F)cc1)C2 (centres unmarked) [Example 18-24] = 250 to 500%
